Molecular target: T1R1/T1R3 receptor (Felis catus, UniProt E3UMS2)
Assay: Activation of T1R1/T1R3 receptor by transmembrane compounds alone or with alanine, IMP, GMP, phenylalanine; HEK293 cells, calcium fluorescence (Example 5)
Type: cell-based, cat
Settings: +IMP (0.2 mM); threshold concentration
measurement_kind: Thres +IMP (0.2 mM)
Expressed in mM, but write only the number.

Please give measured Thres +IMP (0.2 mM) of the following entry: CSc1ccc(-c2nnn(Cc3ccccn3)n2)cc1
0.1575

Please give measured Thres +IMP (0.2 mM) of the following entry: CCC(CC)NC(=O)c1ccc(OC)c(OC)c1 [3,4-dimethoxy-N-(pentan-3-yl)benzamide]
0.5

Please give measured Thres +IMP (0.2 mM) of the following entry: CCCC(CCC)C(=O)Nc1ccc2c(c1)OCO2
0.0675

Please give measured Thres +IMP (0.2 mM) of the following entry: COC(=O)C(NC(=O)/C=C/c1cccs1)C(C)C (stereo not drawn)
1

Please give measured Thres +IMP (0.2 mM) of the following entry: CCCC(C)NC(=O)c1ccc(OC)c(C)c1 (stereo not drawn)
0.025

Please give measured Thres +IMP (0.2 mM) of the following entry: CC1CCCC(NC(=O)c2ccc3c(c2)OCO3)C1C (stereo not drawn)
0.275

Please give measured Thres +IMP (0.2 mM) of the following entry: COc1ccc(/C=C/C(=O)NC2CCCCC2C)cc1 (stereo not drawn)
0.3

Please give measured Thres +IMP (0.2 mM) of the following entry: O=C(NCCc1ccccc1)C(=O)NCc1cccnc1
0.1

Please give measured Thres +IMP (0.2 mM) of the following entry: COc1ccc(C(=O)NC(C)c2ccccc2)cc1C (stereo not drawn)
0.35

###

Could you please report measured +Alanine (20 mM) Thres for the items listed next?
Target: T1R1/T1R3 receptor (Felis catus, UniProt E3UMS2)
Experiment: Activation of T1R1/T1R3 receptor by transmembrane compounds alone or with alanine, IMP, GMP, phenylalanine; HEK293 cells, calcium fluorescence (Example 5)
Type: cell-based, cat
Conditions: +Alanine (20 mM)
Expressed in mM, but write only the number.

Please give measured +Alanine (20 mM) Thres of the following entry: CC1CCCC(NC(=O)c2ccc3c(c2)OCO3)C1C (centres unmarked)
3

Please give measured +Alanine (20 mM) Thres of the following entry: CCCC(C)NC(=O)c1ccc(OC)c(C)c1 (centres unmarked)
0.050

Please give measured +Alanine (20 mM) Thres of the following entry: CCOC(=O)C(NC(=O)c1ccc2c(c1)OCO2)C(C)C (centres unmarked)
10

Please give measured +Alanine (20 mM) Thres of the following entry: CCCC(C)NC(=O)/C=C/c1ccc(OC)c(OC)c1 (centres unmarked)
1

Please give measured +Alanine (20 mM) Thres of the following entry: CCC(CC)NC(=O)c1ccc(Br)o1
1

Please give measured +Alanine (20 mM) Thres of the following entry: COC(=O)C(NC(=O)/C=C/c1cccs1)C(C)C (centres unmarked)
10

Please give measured +Alanine (20 mM) Thres of the following entry: CCC(CC)NC(=O)c1ccc(C)c(C)c1
3

Please give measured +Alanine (20 mM) Thres of the following entry: COc1ccc(C(=O)NC(C)c2ccccc2)cc1C (centres unmarked)
3
